As shown below, each of these molecules has a reported IC50 value.
# assay comment: Basal cytotoxicity, resazurin assay
# condition parameters: human, HEK-293 cells (ATCC CRL 1573), Cytotoxicity, HEK‐293, IC50±SD, HEK‐293 cells, resazurin

These recorded examples may help you get a feel for the data.
[[record]]
molecule = "CC[C@H]1CN2CCc3cc(OC)c(OC)cc3[C@@H]2C[C@@H]1C[C@H]1NCCc2cc(OC)c(OC)cc21 [EM, Emetine, reference compound]"
assay_result = "0.01 µM"

[[record]]
molecule = "NC(=O)N/N=C/c1ccc([N+](=O)[O-])o1 [NFZ, nitrofurazone, reference compound]"
assay_result = "> 100 µM"

[[record]]
molecule = "CCCCCCCCCn1cc(CN2C(=O)CN(/N=C/c3ccc([N+](=O)[O-])o3)C2=O)nn1 [Compound 6]"
assay_result = "43.8 µM"

[[record]]
molecule = "O=C1CN(/N=C/c2ccc([N+](=O)[O-])o2)C(=O)N1Cc1cn(Cc2ccc(F)cc2)nn1 [Compound 17]"
assay_result = "48.4 µM"

[[record]]
molecule = "CCCCCCn1cc(CN2C(=O)CN(/N=C/c3ccc([N+](=O)[O-])o3)C2=O)nn1 [Compound 3]"
assay_result = "17.9 µM"

[[record]]
molecule = "O=C1CN(/N=C/c2ccc([N+](=O)[O-])o2)C(=O)N1Cc1cn(Cc2cccc(C(F)(F)F)c2)nn1 [Compound 20]"
assay_result = "15.8 µM"


Kindly review the next molecule as well.
Lookup: Identify measured IC50 associated with O=C1CN(/N=C/c2ccc([N+](=O)[O-])o2)C(=O)N1Cc1cn(Cc2ccccc2)nn1 [Compound 11]
Found: 21 µM

###

# Tested on: HEK‐293 cells
# assay comment: Basal cytotoxicity, resazurin assay
# condition parameters: read-out: Cytotoxicity, HEK‐293, IC50±SD; HEK‐293 cells, resazurin
assay readout: pIC50
Note on units: pIC50 is unitless, being -log10 of a concentration expressed in mol/L.

Lookup: // fetch pIC50 given entry CC(C)c1ccc(Cn2cc(CN3C(=O)CN(/N=C/c4ccc([N+](=O)[O-])o4)C3=O)nn2)cc1
Found: 5.14

###

# assay comment: Basal cytotoxicity, resazurin assay
# condition parameters: human, HEK-293 cells (ATCC CRL 1573), Cytotoxicity, HEK‐293, IC50±SD, HEK‐293 cells, resazurin
molecules and their reported IC50

Field: example entries. Status: answers known.
[[record]]
entry_smiles = "CCCCCCCCn1cc(CN2C(=O)CN(/N=C/c3ccc([N+](=O)[O-])o3)C2=O)nn1"
assay_result = "31.9 µM"

[[record]]
entry_smiles = "O=C1CN(/N=C/c2ccc([N+](=O)[O-])o2)C(=O)N1Cc1cn(Cc2ccc(Br)cc2)nn1"
assay_result = "32.7 µM"

[[record]]
entry_smiles = "CCCCCCCCCCn1cc(CN2C(=O)CN(/N=C/c3ccc([N+](=O)[O-])o3)C2=O)nn1"
assay_result = "67.1 µM"

[[record]]
entry_smiles = "CCCCCCCn1cc(CN2C(=O)CN(/N=C/c3ccc([N+](=O)[O-])o3)C2=O)nn1"
assay_result = "> 100 µM"

[[record]]
entry_smiles = "Cc1ccc(Cn2cc(CN3C(=O)CN(/N=C/c4ccc([N+](=O)[O-])o4)C3=O)nn2)cc1"
assay_result = "41.8 µM"

[[record]]
entry_smiles = "CCCCCCCCCCCn1cc(CN2C(=O)CN(/N=C/c3ccc([N+](=O)[O-])o3)C2=O)nn1"
assay_result = "20.3 µM"


Lookup: Dear colleague, please send me the reported IC50 for CC(C)c1ccc(Cn2cc(CN3C(=O)CN(/N=C/c4ccc([N+](=O)[O-])o4)C3=O)nn2)cc1 when you can.
Found: < 10 µM

###

# assay comment: in vitro
# condition parameters: human, Cytotoxicity, HEK‐293, IC50±SD
pIC50: −log10 of the molar value.
assay readout: pIC50

[[record]]
molecule = "O=C1CN(/N=C/c2ccc([N+](=O)[O-])o2)C(=O)N1 [NFT, nitrofurantoin, reference compound]"
assay_result = "< 4.00"


Alright, here's another molecule for you.
Lookup: Note down pIC50 recorded for O=C(N/N=C/c1ccc([N+](=O)[O-])o1)c1ccc(O)cc1 [NFX, nifuroxazide, reference compound]
Found: < 4.00

###

# assay comment: Basal cytotoxicity, resazurin assay
# condition parameters: human
assay readout: pIC50
pIC50 (log units): -log10 of the concentration in mol/L.

[[record]]
entry_smiles = "O=C1CN(/N=C/c2ccc([N+](=O)[O-])o2)C(=O)N1Cc1cn(CCc2ccc([N+](=O)[O-])cc2)nn1"
assay_readout = "pIC50"
assay_result = 4.36


Attention now turns to another entry.
Lookup: Specify pIC50 for O=C1CN(/N=C/c2ccc([N+](=O)[O-])o2)C(=O)N1Cc1cn(Cc2ccc([N+](=O)[O-])cc2)nn1 and stop.
Found: 4.22

###

List of pIC50 values.
# assay comment: Basal cytotoxicity, resazurin assay
# condition parameters: human, HEK-293 cells (ATCC CRL 1573), Cytotoxicity, HEK‐293, IC50±SD, HEK‐293 cells, resazurin
Note: pIC50 values are expressed as the negative base-10 logarithm of concentration in M.

Lookup: Given the compound CC(C)(C)c1ccc(Cn2cc(CN3C(=O)CN(/N=C/c4ccc([N+](=O)[O-])o4)C3=O)nn2)cc1 [Compound 14] , write its reported pIC50.
Found: 4.63

Lookup: Note pIC50 for the compound shown: O=C1CN(/N=C/c2ccc([N+](=O)[O-])o2)C(=O)N1Cc1cn(Cc2cccc(Br)c2)nn1 [Compound 19]
Found: 4.90

Lookup: Read the entry O=C1CN(/N=C/c2ccc([N+](=O)[O-])o2)C(=O)N1Cc1cn(Cc2ccc(Br)cc2F)nn1 [Compound 16] and write its reported pIC50.
Found: 4.84

###

# Test system: L. major IR‐173 amastigotes
# assay comment: Anti‐amastigote assay, intramacrophage (THP‐1), resazurin
# Format: cell-based, Leishmania major
# condition parameters: L. major IR‐173: IC50 THP‐1/IC50 amastigote
Recorded Selectivity index SI3 by entry

Here are 3 compounds together with their reported answers.
[[record]]
compound = "NC(=O)N/N=C/c1ccc([N+](=O)[O-])o1 [NFZ, nitrofurazone, reference compound]"
assay_readout = "Selectivity index SI3"
assay_result = "> 17"

[[record]]
compound = "O=C1CN(/N=C/c2ccc([N+](=O)[O-])o2)C(=O)N1Cc1cn(Cc2ccc(Br)cc2)nn1"
assay_readout = "Selectivity index SI3"
assay_result = "> 19"

[[record]]
compound = "O=C1CN(/N=C/c2ccc([N+](=O)[O-])o2)C(=O)N1Cc1cn(Cc2ccc(Br)cc2F)nn1"
assay_readout = "Selectivity index SI3"
assay_result = 9


As a next step, examine the compound that follows.
Lookup: State its Selectivity index SI3: CCCCCCCCCCn1cc(CN2C(=O)CN(/N=C/c3ccc([N+](=O)[O-])o3)C2=O)nn1
Found: > 15

All figures here come from paper PMC9322565.
